Entry source: ChEMBL document CHEMBL1136559

Attribute: MIC
test system: Candida albicans; test: Antifungal activity against Candida albicans ATCC 62376; assay type: functional; settings: Candida albicans, ATCC 62376; read-out: MIC
Starred links: 1 amine or outer side, 2 acyl side, 3 side chain; linkers in the order of their positions; H or OH if unused. Positions of bridges follow the written chain, without caps; N, C: chain ends. Non-standard residues stand in square brackets, D forms with d. Residues, ends and D or L forms follow the SMILES beside them. *: point of attachment. hTyr(3-COCH2NH2) = NCC(=O)c1cc(CC[C@H](N)C(=O)O)ccc1O; X3 = CCCCCCCCOc1ccc(N2CCN(c3ccc(C(=O)*)cc3)CC2)cc1; X6 = NCC(=O)[C@H]1C[C@@H](C(=O)[*:2])N([*:1])C1; Hyp = O=C(O)[C@@H]1C[C@@H](O)CN1; Orn = NCCC[C@H](N)C(=O)O
measured.parameter: MIC

| compound | data.value |
| --- | --- |
| CCCCCOc1ccc(-c2ccc(-c3ccc(C(=O)N[C@H]4CCCNC(=O)[C@@H]5C[C@H](N=C(N)N)CN5C(=O)[C@H]([C@@H](C)O)NC(=O)[C@H](CCc5ccc(O)c(C(=O)CN)c5)NC(=O)[C@@H]5C[C@@H](O)CN5C(=O)[C@H]([C@@H](C)O)NC4=O)cc3)cc2)cc1 (stereo in doubt; 1) | 0.2 µg/mL |
| CCCCCCCCOc1ccc(N2CCN(c3ccc(C(=O)N[C@H]4CCCNC(=O)[C@@H]5C[C@H](C(=O)CN)CN5C(=O)[C@H]([C@@H](C)O)NC(=O)[C@H](CCc5ccc(O)c(C(=O)CN)c5)NC(=O)[C@@H]5C[C@@H](O)CN5C(=O)[C@H]([C@@H](C)O)NC4=O)cc3)CC2)cc1 (X3-[Orn]T[Hyp][hTyr(3-COCH2NH2)]T[X6]; lactam 1-C) | 0.39 µg/mL |
